Assay: Inhibition of equine serum BChE using butyrylthiocholine iodide as substrate by Ellman's method
Set-up: species or system Equus caballus
Outcome measure: IC50 (nM)
One number for each entry, in nM.

>>> recorded_result("Cc1ccc(-c2nc3cc(C(=O)Nc4ccc(O)cc4)ccc3[nH]2)cc1")
1130

Asked: I would be grateful if you could share the reported IC50 for Cc1ccc(-c2nc3cc(C(=O)NNc4ccc(Br)cc4)ccc3[nH]2)cc1 .
Given back: 1460

###

Molecular target: Cholinesterase (Homo sapiens)
Outcome measure: Ki (nM)
Answers are plain numbers, in nM.

Asked: # get_value(readout= Ki, system= Cholinesterase (Homo sapiens)) for O=C(Oc1cc(OC(=O)N2CCCCC2)cc(C(O)CN2CCCCC2)c1)N1CCCCC1 (stereo unspecified)
Given back: 11

###

What IC50 was measured for each of the following?
Target: Cholinesterase (Homo sapiens, UniProt P06276)
Sequence (P06276 whole entry): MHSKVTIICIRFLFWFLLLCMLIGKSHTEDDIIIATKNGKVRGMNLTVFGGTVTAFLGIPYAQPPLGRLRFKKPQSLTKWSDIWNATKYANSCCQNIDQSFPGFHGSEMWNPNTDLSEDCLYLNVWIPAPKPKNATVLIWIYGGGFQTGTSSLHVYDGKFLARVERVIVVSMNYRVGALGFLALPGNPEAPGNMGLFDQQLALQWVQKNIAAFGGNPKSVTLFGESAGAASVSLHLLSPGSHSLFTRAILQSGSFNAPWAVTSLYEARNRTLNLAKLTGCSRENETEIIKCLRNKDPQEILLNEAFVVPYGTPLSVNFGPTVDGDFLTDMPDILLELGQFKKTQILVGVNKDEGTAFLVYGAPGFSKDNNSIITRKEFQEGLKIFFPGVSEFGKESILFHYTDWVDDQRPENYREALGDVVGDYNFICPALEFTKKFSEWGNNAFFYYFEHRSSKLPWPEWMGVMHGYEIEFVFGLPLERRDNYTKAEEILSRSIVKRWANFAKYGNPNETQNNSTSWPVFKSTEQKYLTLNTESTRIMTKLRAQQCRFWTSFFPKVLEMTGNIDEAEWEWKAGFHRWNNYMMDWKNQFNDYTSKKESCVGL
Test: Inhibition of human BChE using butyrylthiocholine iodide as substrate preincubated for 15 min followed by substrate addition measured after 40 min by Ellman's method
One number for each entry, in nM.

>>> recorded_result("CCN(CC)Cc1ccccc1CNC(=O)c1cccc(NC(=O)c2cccc(NC(=O)CCCCCCC(=O)NO)c2)c1")
4

Now consider the entry below.
Asked: For the compound CCN(CC)Cc1ccccc1CNC(=O)c1cccc(NC(=O)c2cccc(C(=O)NO)c2)c1 , what IC50 is on record?
Given back: 1.8

###

Biological target: UniProt P14902
Sequence (P14902 whole entry): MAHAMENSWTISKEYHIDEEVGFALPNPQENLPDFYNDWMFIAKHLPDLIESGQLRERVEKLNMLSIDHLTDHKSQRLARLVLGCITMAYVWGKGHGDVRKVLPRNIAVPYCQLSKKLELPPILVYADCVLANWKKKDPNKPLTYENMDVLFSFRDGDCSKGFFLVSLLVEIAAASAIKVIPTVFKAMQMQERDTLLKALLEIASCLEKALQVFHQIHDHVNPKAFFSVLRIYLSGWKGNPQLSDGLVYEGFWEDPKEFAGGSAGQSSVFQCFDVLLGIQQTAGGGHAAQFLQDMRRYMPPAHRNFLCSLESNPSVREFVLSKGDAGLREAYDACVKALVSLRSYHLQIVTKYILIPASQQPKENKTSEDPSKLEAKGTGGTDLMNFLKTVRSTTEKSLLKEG
Outcome measure: pIC50
Numbers only, as −log10 of the molar value.

Asked: // query pIC50 value for entry COc1cccc(COC(Cn2ccnc2)c2ccc(F)c(F)c2)c1 (stereo unspecified)
Given back: 4.64

###

Molecular target: Cholinesterase (Equus caballus)
Sequence (P81908 whole entry): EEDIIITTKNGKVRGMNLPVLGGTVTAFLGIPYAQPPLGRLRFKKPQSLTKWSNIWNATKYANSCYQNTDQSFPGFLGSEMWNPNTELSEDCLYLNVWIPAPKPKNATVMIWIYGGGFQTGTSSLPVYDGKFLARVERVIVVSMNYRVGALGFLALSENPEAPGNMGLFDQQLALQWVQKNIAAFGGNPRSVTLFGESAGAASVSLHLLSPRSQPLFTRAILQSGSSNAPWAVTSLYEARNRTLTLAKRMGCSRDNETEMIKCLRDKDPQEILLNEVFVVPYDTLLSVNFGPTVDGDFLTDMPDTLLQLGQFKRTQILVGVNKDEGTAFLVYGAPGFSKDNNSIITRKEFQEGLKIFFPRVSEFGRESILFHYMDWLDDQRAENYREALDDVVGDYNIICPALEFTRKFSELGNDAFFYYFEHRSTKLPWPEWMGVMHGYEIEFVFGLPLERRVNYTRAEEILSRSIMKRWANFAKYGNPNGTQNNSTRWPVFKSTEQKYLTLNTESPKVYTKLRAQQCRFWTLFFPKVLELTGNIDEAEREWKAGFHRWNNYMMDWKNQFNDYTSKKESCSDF
Experiment: Inhibition of equine serum BuChE using S-butyrylthiocholine chloride as substrate by Ellman's method
Type: cell-free
Outcome measure: pIC50
One number for each entry, as −log10 of the molar value.

Asked: Quick one: pIC50 of CN1CCc2c(c3cc(F)ccc3n2CCNC23CC4CC(C)(CC(C)(C4)C2)C3)C1 ?
Given back: 6.14

###

Molecular target: UniProt:P22303
Sequence (P22303 whole entry): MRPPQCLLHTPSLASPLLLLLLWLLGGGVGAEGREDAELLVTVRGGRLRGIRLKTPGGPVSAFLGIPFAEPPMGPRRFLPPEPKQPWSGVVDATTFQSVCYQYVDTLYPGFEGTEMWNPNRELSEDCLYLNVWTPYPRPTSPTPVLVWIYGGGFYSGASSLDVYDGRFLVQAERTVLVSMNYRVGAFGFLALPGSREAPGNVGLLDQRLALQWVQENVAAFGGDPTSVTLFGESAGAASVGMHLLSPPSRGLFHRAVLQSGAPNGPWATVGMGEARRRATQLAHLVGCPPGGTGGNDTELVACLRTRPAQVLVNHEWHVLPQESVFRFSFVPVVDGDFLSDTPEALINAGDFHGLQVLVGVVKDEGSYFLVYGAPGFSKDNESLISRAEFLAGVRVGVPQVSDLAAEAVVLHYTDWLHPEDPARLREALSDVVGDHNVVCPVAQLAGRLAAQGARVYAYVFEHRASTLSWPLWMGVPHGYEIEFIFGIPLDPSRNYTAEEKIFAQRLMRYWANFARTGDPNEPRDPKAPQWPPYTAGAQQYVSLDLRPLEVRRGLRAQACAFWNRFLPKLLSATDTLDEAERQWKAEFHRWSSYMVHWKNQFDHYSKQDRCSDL
Assay: Inhibition of human AChE using acetylthiocholine iodide as substrate after 15 mins by Ellman's method
Task for the reader: assign each of the following compounds its reported IC50.
One number for each entry, in nM.

>>> recorded_result("O=C(NCCCCCCNc1c2c(nc3ccccc13)CCCC2)c1ccccc1O")
20

The record that follows has no IC50 shown yet.
Asked: Would you mind telling me what IC50 value was observed for COc1cc(CNCCCNc2c3c(nc4ccccc24)CCCCC3)ccc1O ?
Given back: 3010

###

Target: UniProt:P81908
Assay: Inhibition of equine BuChE
pIC50: −log10 of the molar value.
If the reported pIC50 equals or exceeds 7, assign YES. If not, assign NO.

Previously resolved entries follow.
>>> label_class("CCCCCCNC(=O)Oc1ccc2[nH]cc(CCNC(=O)c3ccccc3Nc3ccccc3)c2c1")
"YES"
>>> label_class("CN(C)C(=O)Oc1ccc(C(=O)C2CCC(Cc3ccccc3)CC2)c(OC(=O)N(C)C)c1 (stereo not given)")
"NO"
>>> label_class("c1ccc(CN2CCC(NCCCCCCn3c4ccccc4c4ccccc43)CC2)cc1")
"NO"
>>> label_class("CON(C)C(=O)Oc1cc(C)ccc1C(=O)NCCc1c[nH]c2ccc(Cl)cc12")
"YES"
>>> label_class("COc1cccc(C(=O)OCc2ccccc2)c1OC(=O)N(C)OC")
"NO"
>>> label_class("O=C(NCCCCCCNc1c2c(nc3ccccc13)CCCC2)c1ccccc1O")
"YES"

Asked: Is pIC50 for O=C(Nc1ccccc1Cl)C(NS(=O)(=O)c1ccccc1)c1ccccc1 (stereo not given) at or above 7?
Given back: NO

Asked: State whether the measured pIC50 reaches 7, counting equality as reaching it, for NNc1nc(NN)nc(NCCNC(=O)c2cc3c([nH]c4ccccc43)c(-c3ccccc3)n2)n1
Given back: NO

Asked: Entry Nc1c2c(nc3ccccc13)CCC2 : is its pIC50 no less than 7?
Given back: NO
